system: Streptococcus pyogenes C203; test: MIC, standard agar-dilution assay (Table II); format: cell-based; parameters: unit not given here
Provide the reported minimal inhibitory concentration (MIC) of each item.

Input: Can you share its minimal inhibitory concentration (MIC)? I mean this compound: CCC1OC(=O)CC(O)C(C)C(OC2OC(C)C(O)C(N(C)C)C2O)C(CC=O)CC(C)C(=O)C=CC(C)=CC1COC(=O)CCCC(=O)OC (centres unmarked)
Output: 0.125

Input: GET /values?readout=minimal inhibitory concentration (MIC)&item= CCCCC(=O)OCC1C=C(C)C=CC(=O)C(C)CC(CC=O)C(OC2OC(C)C(OC(C)=O)C(N(C)C)C2OC(C)=O)C(C)C(O)CC(=O)OC1CC (centres unmarked)
Output: 0.25

Input: Query: minimal inhibitory concentration (MIC); subject: CCC1OC(=O)CC(O)C(C)C(OC2OC(C)C(OC(C)=O)C(N(C)C)C2OC(C)=O)C(CC=O)CC(C)C(=O)C=CC(C)=CC1COC(=O)CC(C)C (centres unmarked)
Output: 0.5

Input: State the recorded minimal inhibitory concentration (MIC) for this entry: CCC1OC(=O)CC(O)C(C)C(OC2OC(C)C(O)C(N(C)C)C2OC(C)=O)C(CC=O)CC(C)C(=O)C=CC(C)=CC1COC(=O)c1ccc2ccccc2c1 (centres unmarked)
Output: 0.125

Input: Need minimal inhibitory concentration (MIC), item CCCCCCCC(=O)OCC1C=C(C)C=CC(=O)C(C)CC(CC=O)C(OC2OC(C)C(O)C(N(C)C)C2O)C(C)C(O)CC(=O)OC1CC (centres unmarked)
Output: 0.5
